# assay-summary: qHTS Assay for Foot and Mouth Disease Virus Antivirals: Primary Screen against the MLPCN compound library; note: nearly all actives have a fitted effect of over 55% in size
# cond: FMDV antiviral cell-based qHTS; series mostly up to 57.9 µM
In all, about 410,000 compounds went through this assay and about 2,000 (0.49%) were called active. Not shown: some 8% with an inconclusive outcome. Calls come from the whole dose curve; tested in HEK293 reporter line. Many of the other results were omitted from the sample, so actives are more common in it than they were.
Use one of these outcomes when replying: active, inactive

query: Assay result, entry `Nc1nc(COC(=O)CCC(=O)c2ccc(Cl)cc2)nc(Nc2ccccc2)n1` — outcome?
result: inactive

query: How was `Cc1cc(OCCCCN2C(=O)NC(C)(C)C2=O)cc(C)c1Cl` classified in this test?
result: inactive

query: Identify the outcome logged in this assay for the compound shown: `Fc1ccccc1-c1csc(=Nc2cccnc2)n1CCCn1ccnc1`
result: inactive

query: # fetch the recorded call for `CC(C)c1cc(Br)ccc1OCCCN1C(=O)NC(C)(C)C1=O` here
result: active

query: Given `CCc1nc2ccc(C(=O)Nc3cc(-c4ccccc4)ccc3OC)cn2c1N(C=O)CCC(C)C` , state the outcome it received in this test.
result: inactive

query: Would you mind telling me which call this test gave `Cc1ccc(S(=O)(=O)c2c(C)nn(C(C)(C)C)c2OC(=O)C(C)(C)C)cc1` ?
result: inactive

###

# assay-summary: qHTS Assay for Foot and Mouth Disease Virus Antivirals: Primary Screen against the MLPCN compound library; note: nearly all actives have a fitted effect of over 55% in size; note: potency is the fitted concentration of half-maximal effect
# cond: FMDV antiviral cell-based qHTS; series mostly up to 57.9 µM
In all, about 410,000 compounds went through this assay and about 2,000 (0.49%) were called active. About 8% were inconclusive and are not listed. The sample as a whole holds a higher share of actives than the screen did.
readout: Potency

Some compounds with recorded Potency:
query: Entry CC(NC(=O)C1CCN(CCOc2ccc(Cl)cc2)CC1)c1cccc2ccccc12 (configuration not stated) has what Potency?
result: inactive

query: What does the data say about its Potency? Entry: `O=C(Nc1ccc(Cl)c(C(F)(F)F)c1)c1cc2nc(-c3ccc4c(c3)OCO4)cc(C(F)(F)F)n2n1`
result: inactive

query: Would you kindly share the measured Potency for CCCCCC(=O)N1CC2(CC(c3cccc(NC(=O)COc4ccc(Cl)cc4)c3)=NO2)C[C@@H]1C(N)=O (some centres not stated) ?
result: 14.1 µM (active)

query: Bench note: what Potency did `Cc1ccc(S(=O)(=O)Nc2nc(C)c(C)s2)cc1` show?
result: inactive

query: Need Potency of `CN1CCN(S(=O)(=O)c2cccc(C(=O)Nc3ccc(Br)cc3Br)c2)CC1` , thanks.
result: inactive

More entries:
query: Potency for `Cc1ccc(-c2nc(CCNC(=O)c3ccco3)cs2)cc1` ?
result: inactive

query: Name the recorded Potency for `COc1cccc(N2CCN(c3c4c(nc5nncn35)CCC4)CC2)c1` .
result: 14.1 µM (active)

query: Can you share its Potency? I mean this compound: COc1ccc(CN2CCNC(=O)C2CC(=O)NC2CCCC2)c(OC)c1 (configuration not stated)
result: inactive

query: Potency lookup needed for `CCOc1ccc(Nc2c3c(nc4nncn24)CCC3)cc1` , thanks.
result: inactive

query: Consider the compound shown here: `Cc1ccc(-c2nc(C)c(C(=O)O)s2)cc1` What is its recorded Potency?
result: 25.1 µM (active)

query: Need Potency of `COc1ccccc1N=C1SCC(=O)N1c1ccccc1OC` , thanks.
result: inactive

query: Using the record for `Nc1ccc(-c2ccc(N)cc2C(F)(F)F)c(C(F)(F)F)c1` , report its Potency.
result: inactive

query: Entry COc1ccc(CN2CCNC(=O)C2CC(=O)N(C)Cc2ccno2)c(F)c1 (configuration not stated) has what Potency?
result: inactive

query: Request the reported Potency associated with `Cc1nn(CC(C)C)c(Cl)c1C(=O)N(C)CC(=O)Nc1ccc(Cl)cc1`
result: inactive

query: Would you mind telling me what Potency value was observed for C=C(C)C(=O)N1CC2(CC(c3cccc(NC(=O)COc4ccc(Cl)cc4)c3)=NO2)C[C@@H]1C(N)=O (some centres not stated) ?
result: inactive

query: Requested read-out: Potency. Entry: `O=C(Nc1cccc(S(=O)(=O)N2CCCCC2)c1)c1cnccn1`
result: inactive

query: Fill blank: measured Potency of the compound `Cc1cccc(CNc2ncnc3ccc(-c4ccc5c(c4)OCCO5)cc23)c1` is ____.
result: inactive

query: Can you share its Potency? I mean this compound: `CCOc1ccc(-c2nnc(-c3cccs3)o2)cc1`
result: 15.8 µM (active)

query: Dear colleague, I am looking for the recorded Potency of the following compound: `O=C(Nc1ccc(N2CCOCC2)cc1)c1cnccn1`
result: 12.6 µM (active)

query: What Potency value was documented for this compound, `COc1cccc(C(=O)Nc2cccc(-c3nnc(-c4ccccc4)o3)c2)c1` ?
result: inactive

query: Look up Potency: `CCc1ccc2oc(-c3cc(N)ccc3Cl)nc2c1`
result: 17.8 µM (active)

query: Given the entry `Cc1nn2c(=O)cc(COC(=O)c3ccc(C(C)(C)C)cc3)nc2s1` , report its measured Potency.
result: inactive

###

# assay-summary: qHTS Assay for Foot and Mouth Disease Virus Antivirals: Primary Screen against the MLPCN compound library; note: nearly all actives have a fitted effect of over 55% in size
# cond: FMDV antiviral cell-based qHTS; series mostly up to 57.9 µM
In all, about 410,000 compounds went through this assay and about 2,000 (0.49%) were called active. Inconclusive results (about 8%) are left out. The call rests on the fitted dose curve; tested in HEK293 reporter line. This is one part of a sample in which actives are shown more often than they occur.
Hi there, use one of these labels in your reply, thanks! active, inactive

query: How did this test come out for `CCc1nnc(NC(=O)CSc2nc(-c3ccccc3)cc(-c3ccc(F)cc3)c2C#N)s1` ?
result: inactive

query: Look up the recorded call for `O=S(=O)(Nc1ccc2ccccc2n1)c1ccc2c(c1)CCO2` in this test.
result: inactive

query: Hey, what did the test say about `Cc1cc(N2CCN(C(=O)c3ccco3)CC2)n2nc(-c3cccc(Cl)c3)cc2n1` ?
result: active

query: Given `Cc1ccc(C2=Nc3ccccc3NC(c3ccncc3)=N2)cc1` , state the outcome it received in this test.
result: inactive

query: Hi team, can someone confirm the assay call for `Brc1ccc([C@H]2C=C[C@H]3CCCN4CC[C@H]2[C@@H]3[C@]42CO2)cc1` ?
result: inactive

query: Given `O=C(Nc1ccc2nc3n(c(=O)c2c1)CCCCC3)c1cccc(C(F)(F)F)c1` , state the outcome it received in this test.
result: inactive

query: State the result this test recorded for `COc1ccc(NC(=O)CNC(=O)Cn2c(C)cc3ccccc3c2=O)cc1OC` .
result: inactive

query: Outcome? `N#C/C(=C\c1ccc(N2CCOCC2)o1)c1nc2ccccc2[nH]1`
result: active

query: Which outcome was assigned to `CCOc1ccc(C(=O)N(Cc2cc(OC)c(OC)c(OC)c2)c2ccccn2)cc1` in this test?
result: inactive

query: Test call, this molecule: `CC(=O)N1CCN(c2ccc(NC(=O)c3cccc(F)c3)cc2)CC1`
result: inactive

query: Per the assay record, what outcome was assigned to `COc1ccc(OCC(=O)Nc2nccs2)cc1` ?
result: active

query: Query: recorded result category for `O=C(COc1ccc2c3c(c(=O)oc2c1)CCC3)N1CCN(c2ccc(F)cc2)CC1` in this test
result: inactive

query: Outcome? `COc1ccccc1CN1C(=O)c2cccc3cccc(c23)C1=O`
result: inactive

query: What call does the record list for `Nc1cccc2c1C(=O)N(CCOc1ccccc1F)C2=O` ?
result: active

query: Which result was noted for this molecule in the test: `COc1ccc(Nc2nc(N)nc(CN3CCN(c4ccccn4)CC3)n2)cc1`
result: inactive

query: # outcome recorded in this test, key = CCOC(=O)c1ccc[n+](C(C)C(=O)c2ccc(-c3ccccc3)cc2)c1 (configuration not stated)
result: inactive

query: What was the test verdict on `CCN(CC)CCNC(=O)COc1ccc(OC)cc1` ?
result: inactive

query: What did this assay record as the result for `Nc1cc(-c2ccc(Br)cc2)nn1S(=O)(=O)c1ccccc1` ?
result: inactive

query: How did this test come out for `CCOc1ncccc1C(=O)Nc1cc(S(=O)(=O)N(CC)CC)ccc1N1CCOCC1` ?
result: inactive

query: Field: outcome | Entry: `O=C(c1ccco1)N1CCN(c2c([N+](=O)[O-])nn(-c3cccc(Cl)c3)[n+]2[O-])CC1`
result: inactive

query: Dear colleague, could you share the recorded outcome for `CCOc1ccc(CN(C)C(=O)c2cc(S(=O)(=O)N3CCCC3)ccc2C)cc1` when you have a moment?
result: inactive

query: Write down the call the test reported for this molecule. Item: `COc1ccc(C(=O)Nc2ccc(N3CCN(C(=O)c4ccccc4C)CC3)cc2)cc1`
result: inactive

query: In this assay, the call recorded for `CCN1CCN(C(=O)c2ccc(NS(=O)(=O)c3ccccc3)cc2)CC1` was what?
result: inactive

query: Write down the call the test reported for this molecule. Item: `CCc1c(C)c2ccc(O)c(CN3CCN(c4ccccc4)CC3)c2oc1=O`
result: inactive

query: Called result for `CCOc1ccc(NC(=O)CN2C(=O)CCSc3ccc(S(=O)(=O)N4CCCC4)cc32)cc1`
result: inactive

query: Per the records of this test, what outcome belongs to `COc1cc(/C=C(\C#N)c2nc3ccccc3[nH]2)cc(Cl)c1OCc1ccccc1Cl` ?
result: inactive

query: Assay result, entry `O=C(Oc1cccc(/C=N/Nc2nc(N3CCOCC3)nc(N3CCOCC3)n2)c1)c1ccco1` — outcome?
result: inactive

query: Could you please tell me the result logged for `Cc1ccc(S(=O)(=O)N(C)C)cc1NC(=O)CSc1nc2ccccc2[nH]1` in this assay?
result: inactive

query: What did this assay record as the result for `COc1ccc(S(=O)(=O)N2CCCN(CCC(=O)Nc3cccc(C(F)(F)F)c3)CC2)cc1` ?
result: inactive

query: What was the test verdict on `COc1cc(/C=C(/C#N)c2nc3ccccc3[nH]2)ccc1OCC(=O)Nc1ccccc1C` ?
result: inactive

query: Returns: the outcome recorded for `O=C(CN1CCN(c2ccccn2)CC1)Nc1cccc(C(F)(F)F)c1` in this assay.
result: inactive

query: Could you check what this test reported for `O=S(=O)(c1ccc(Cl)cc1)N1CCc2ccccc21` ?
result: inactive

query: Assay outcome for `Cc1ccc(C(=O)N(CC(=O)Nc2sc(C)c(C)c2C(N)=O)C2CCCC2)cc1` : what was it?
result: inactive

query: Please share the test call associated with `Cc1nn(-c2ccccc2)nc1C(=O)NN` .
result: inactive

query: Status in this test for `C=C[C@H](Cc1ccccc1)N(Cc1ccccc1)S(=O)(=O)N(Cc1ccccc1)[C@H](C=C)Cc1ccccc1` ?
result: inactive

query: So what was the verdict on `CN1CCN(c2ccc(NC(=O)c3ccc4ccccc4c3)cc2)CC1` in this test?
result: active

query: For `CCOC(=O)Cn1nc(C)c(NC(=O)COc2ccc(OC)cc2)c1C` , what call appears in the results of this test?
result: inactive

query: Hey, what did the test say about C=CC(COCc1ccccc1)N([C@@H](Cc1ccccc1)C(=O)OC)S(=O)(=O)c1ccccc1Br (some centres not stated) ?
result: inactive

query: Record request — test call for `COc1ccc(CNC(=O)C[C@H]2C[C@H](C(=O)N(C(C)C)C(C)C)[C@@]3(C)c4[nH]c5ccc(Cl)cc5c4CCN3C2=O)cc1OC`
result: inactive

query: Query: recorded result category for O=C(CCCOc1ccc(Cl)cc1)NCC1CCCO1 (configuration not stated) in this test
result: inactive

query: Please share the test call associated with [N-]=[N+]=CC(=O)C(Cc1ccccc1)N1C(=O)c2ccccc2C1=O (configuration not stated) .
result: inactive

query: Please share the test call associated with `CCOc1ccc(C=NNC(=O)c2cccc3ccccc23)cc1OCC` .
result: inactive
